We begin with pIC50 values for BTK (Homo sapiens, UniProt Q06187), as collected from the published literature.
pIC50: −log10 of the molar value.

MOLECULE: C=CC(=O)N1CCC[C@@H](Nc2nc(Nc3cnn(C(C)C)c3)nc3ccsc23)C1
RESULT: ≥ 7.30
--
MOLECULE: O=C(CNc1ccccc1S(=O)(=O)c1ccccc1)N[C@@H]1CCCN(c2ncnc3[nH]ncc23)C1
RESULT: > 7.00
--
MOLECULE: CC(C)(C)c1ccc2c(=O)n(-c3cccc(-c4c[nH]c(C(N)=O)c4)c3CO)ncc2c1
RESULT: 7.57
--
MOLECULE: C=CC(=O)Nc1cccc(Oc2c(Cl)cnc3[nH]c(-c4ccc(N(C)C)cc4)nc23)c1
RESULT: 6.00 to 7.00
--
MOLECULE: O=C(O)Cc1cccc(Oc2cnc3[nH]cc(C(=O)c4ccc(F)cc4Cl)c3c2)c1
RESULT: ≥ 5.00
--
MOLECULE: C=CC(=O)N1CC(C)(Nc2cncc(-c3cnc(Oc4cccc(Cl)c4)nc3)c2)C1
RESULT: 8.16

Provide measured pIC50 value, entry: `COc1ccc(NC(=O)/C=C/CN(C)C)cc1Nc1cc(Nc2ccc(F)c(Cl)c2)ncn1`
6.00 to 7.00

Provide measured pIC50 value, entry: CCCCC1C(Nc2ncnc3[nH]ccc23)CCCN1C(=O)CNc1cc(Cl)cc(Cl)c1 (stereo not shown)
6.00 to 7.00

---

pIC50: −log10 of the molar value.
We begin with pIC50 values for BTK (Homo sapiens), as collected from the published literature.
OUTCOME MEASURE: pIC50

See these solved cases before continuing.
MOL SMILES: C=CC(=O)N1CCC[C@@H](n2nc(/C=C/c3ccc(Cl)cc3)c3c(N)ncnc32)C1
NUMERIC VALUE: 8.24
--
MOL SMILES: CC(C)(O)CCN1Cc2cc(-c3cccc4c(N)c(C(N)=O)nnc34)ccc2C1=O
NUMERIC VALUE: 7.60
--
MOL SMILES: COc1cccc(-c2c(CCCN3CCCC3)c(-c3ccc(Oc4ccccc4)cc3)c3c(N)ncnn23)c1
NUMERIC VALUE: 7.19

(I) C=CC(=O)N1C[C@H]2[C@@H]([C@H]1c1nc(-c3ccc(C(=O)Nc4cc(C)ccn4)cc3)c3c(N)nccn13)C2(C)C
(II) C=CC(=O)Nc1cc(-n2c(=O)ccc3cnc4ccc(-c5ccc(N)nc5)cc4c32)ccc1C
(III) CCc1ccc2c(N)c(C(N)=O)nnc2c1-c1ccc2c(c1)CNC2=O
(IV) C=CC(=O)N1CCC(n2nc(-c3ccc(Oc4ccccc4)cc3)c3c(N)ncnc32)CC1
List by increasing pIC50. Quick reminder: the answer is the labels in the order asked.
I, II, III, IV
(I: 7.29, II: 7.80, III: 8.30, IV: 8.51)

---

We begin with pIC50 values for BTK (Homo sapiens, UniProt Q06187), as collected from the published literature.
pIC50: −log10 of the molar value.

See these solved cases before continuing.
MOLECULE: CCCN(CC(C)C)S(=O)(=O)c1ccccc1NCC(=O)N1CC[C@@H](C)[C@H](Nc2ncnc3[nH]ncc23)C1
OUTCOME MEASURE: pIC50
RESULT: < 5.00
--
MOLECULE: CC1CN(c2nc(-c3cnn(C)c3)cn3nccc23)CCC1CNC(=O)c1noc(C2(C)CC2)n1 (stereo not drawn)
OUTCOME MEASURE: pIC50
RESULT: 8.00 to 9.00
--
MOLECULE: CC(C)[C@@H](Nc1cc(F)cc(Cl)c1)C(=O)N[C@@H]1CCCN(c2ncnc3[nH]ccc23)C1
OUTCOME MEASURE: pIC50
RESULT: > 7.00
--
MOLECULE: C=CC(=O)N1CCC(Nc2cc(CN3CCOCC3)cc(Nc3ncc(C)s3)n2)CC1
OUTCOME MEASURE: pIC50
RESULT: 7.99

Provide measured pIC50 value, entry: `C=CC(=O)N1CC[C@@H](Cn2nc(-c3ccc(Oc4ccccc4)cc3)c3cncnc32)C1`
6.30 to 7.00

Provide measured pIC50 value, entry: C=CC(=O)N1C2CN[C@@H](C2)C1c1nc(-c2ccc(C(=O)Nc3ccccn3)cc2)c2c(N)nccn12 (stereo partly drawn)
8.48

Provide measured pIC50 value, entry: C=CC(=O)N1CCCCC(Nc2nccc(Nc3nc4ccc(Oc5ccccc5)nc4s3)n2)C1 (stereo not drawn)
8.04

Provide measured pIC50 value, entry: `CC(C)(C)c1ccc(C(=O)NCc2ccc(-c3ncnc4[nH]ccc34)cc2C(F)(F)F)nc1`
7.00 to 8.00

Provide measured pIC50 value, entry: CN(C)C/C=C/C(=O)NC1CCC(n2cc(-c3ccc(Oc4ccccc4)cc3)c3c(N)n[nH]c(=O)c32)CC1 (stereo not drawn)
6.00 to 8.00

Provide measured pIC50 value, entry: `CC#CC(=O)N[C@H]1CCC[C@H](c2c(F)c(F)c(C(N)=O)c3[nH]c(C)c(Cl)c23)C1`
< 8.00

Provide measured pIC50 value, entry: `CN(C(=O)/C=C/CN(C)C1CC1)c1cccc(-n2c(=O)n(-c3ccc(Oc4ccccc4)nc3)c3c(N)ncnc32)c1`
> 7.00

Provide measured pIC50 value, entry: `C=CC(=O)N1CC[C@@H](Nc2nc(Nc3cnn(CCN4CCOCC4)c3)nc3ccsc23)C1`
≥ 7.30

Provide measured pIC50 value, entry: `CN(C)C/C=C/C(=O)N1CC[C@@H](n2nc(-c3ccc(Cl)cc3)c3c(N)ncnc32)C1`
> 7.00

Provide measured pIC50 value, entry: `C=CC(=O)N[C@H]1C[C@@H](n2nc(-c3ccc(Oc4cc(F)cc(OCc5cnc(C)nc5)c4)cc3)c3c(N)ncnc32)C1`
8.10

Provide measured pIC50 value, entry: `Cc1c(-c2cc(Nc3ccc(C(=O)N4CCOCC4)cn3)c(=O)n(C)c2)cccc1-c1c[nH]c2cc(N(C)C)ccc2c1=O`
6.43
